Target: Full length PKA (Homo sapiens)
pIC50: −log10 of the molar value.
Assign pIC50 to each entry below.

## Input Please look at this compound and report its pIC50: Cn1nccc1-c1ccc2c(c1)CN([C@H](CN)Cc1cscn1)C2=O [Example 82]
## Output < 5.30

## Input Please look at this compound and report its pIC50: Cn1ncc(Br)c1-c1ccc2c(c1)CN([C@H](CN)Cc1cc(F)cc(F)c1)C2=O [Example 52]
## Output 5.30 to 6.30

## Input Please look at this compound and report its pIC50: COc1cc(C[C@@H](CN)N2Cc3cc(-c4c(Cl)cnn4C)ccc3C2=O)ccn1 [Example 64]
## Output < 5.30

## Input Please look at this compound and report its pIC50: CC(C)Cn1nccc1-c1ccc2c(c1)CN([C@H](CN)Cc1cc(F)cc(F)c1)C2=O [Example 130]
## Output < 5.30

## Input Please look at this compound and report its pIC50: CC(C)NC[C@H](Cc1cccc(F)c1)N1Cc2cc(-c3c(Cl)cnn3C)ccc2C1=O [Example 32]
## Output < 5.30

## Input Please look at this compound and report its pIC50: Cn1ncc(-c2ccc3ccccc3c2)c1-c1ccc2c(c1)CN([C@H](CN)Cc1cccc(F)c1)C2=O [Example 21]
## Output < 5.30

## Input Please look at this compound and report its pIC50: CCn1nccc1-c1ccc2c(c1)CN([C@H](CN)Cc1cc(F)cc(F)c1)C2=O [Example 128]
## Output < 5.30

## Input Please look at this compound and report its pIC50: CSCc1cnn(C)c1-c1ccc2c(c1)CN([C@H](CN)Cc1cccc(F)c1)C2=O [Example 10]
## Output < 5.30

## Input Please look at this compound and report its pIC50: Cn1ncc(Cl)c1-c1ccc2c(c1)CN([C@H](CN)Cc1ccccc1)C2=O [Example 56]
## Output 5.30 to 6.30

## Input Please look at this compound and report its pIC50: Cn1ncc(Cl)c1-c1ccc2c(c1)CN([C@H](CN)Cc1cccc(C(F)(F)F)c1)C2=O (stereo in doubt) [Example 61]
## Output 5.30 to 6.30

## Input Please look at this compound and report its pIC50: Cn1ncc(Br)c1-c1ccc2c(c1)CN([C@H](CN)Cc1cccc(F)c1)C2=O [Example 12]
## Output 5.30 to 6.30

## Input Please look at this compound and report its pIC50: Cn1ncc(-c2ccc(F)nc2)c1-c1ccc2c(c1)CN([C@H](CN)Cc1cccc(F)c1)C2=O [Example 25]
## Output < 5.30

## Input Please look at this compound and report its pIC50: Cn1nccc1-c1cnn(C)c1-c1ccc2c(c1)CN([C@H](CN)Cc1cccc(F)c1)C2=O [Example 17]
## Output < 5.30

## Input Please look at this compound and report its pIC50: CCSCc1cnn(C)c1-c1ccc2c(c1)CN([C@H](CN)Cc1cc(F)cc(F)c1)C2=O [Example 50]
## Output < 5.30

## Input Please look at this compound and report its pIC50: COc1ccc(C(CN)N2Cc3cc(-c4ccnn4C)ccc3C2=O)cc1 (stereo not shown) [Example 120]
## Output < 5.30

## Input Please look at this compound and report its pIC50: Cn1nccc1-c1ccc2c(c1)CN([C@H](CN)CC1CC1)C2=O [Example 136]
## Output < 5.30
